Value source: paper PMC4042160

- ASSAYED_SYSTEM: LRRK2 phospho-Ser935 (Homo sapiens, UniProt Q5S007)
- Construct: expressed in transfected cells
- Sequence (Q5S007 whole entry): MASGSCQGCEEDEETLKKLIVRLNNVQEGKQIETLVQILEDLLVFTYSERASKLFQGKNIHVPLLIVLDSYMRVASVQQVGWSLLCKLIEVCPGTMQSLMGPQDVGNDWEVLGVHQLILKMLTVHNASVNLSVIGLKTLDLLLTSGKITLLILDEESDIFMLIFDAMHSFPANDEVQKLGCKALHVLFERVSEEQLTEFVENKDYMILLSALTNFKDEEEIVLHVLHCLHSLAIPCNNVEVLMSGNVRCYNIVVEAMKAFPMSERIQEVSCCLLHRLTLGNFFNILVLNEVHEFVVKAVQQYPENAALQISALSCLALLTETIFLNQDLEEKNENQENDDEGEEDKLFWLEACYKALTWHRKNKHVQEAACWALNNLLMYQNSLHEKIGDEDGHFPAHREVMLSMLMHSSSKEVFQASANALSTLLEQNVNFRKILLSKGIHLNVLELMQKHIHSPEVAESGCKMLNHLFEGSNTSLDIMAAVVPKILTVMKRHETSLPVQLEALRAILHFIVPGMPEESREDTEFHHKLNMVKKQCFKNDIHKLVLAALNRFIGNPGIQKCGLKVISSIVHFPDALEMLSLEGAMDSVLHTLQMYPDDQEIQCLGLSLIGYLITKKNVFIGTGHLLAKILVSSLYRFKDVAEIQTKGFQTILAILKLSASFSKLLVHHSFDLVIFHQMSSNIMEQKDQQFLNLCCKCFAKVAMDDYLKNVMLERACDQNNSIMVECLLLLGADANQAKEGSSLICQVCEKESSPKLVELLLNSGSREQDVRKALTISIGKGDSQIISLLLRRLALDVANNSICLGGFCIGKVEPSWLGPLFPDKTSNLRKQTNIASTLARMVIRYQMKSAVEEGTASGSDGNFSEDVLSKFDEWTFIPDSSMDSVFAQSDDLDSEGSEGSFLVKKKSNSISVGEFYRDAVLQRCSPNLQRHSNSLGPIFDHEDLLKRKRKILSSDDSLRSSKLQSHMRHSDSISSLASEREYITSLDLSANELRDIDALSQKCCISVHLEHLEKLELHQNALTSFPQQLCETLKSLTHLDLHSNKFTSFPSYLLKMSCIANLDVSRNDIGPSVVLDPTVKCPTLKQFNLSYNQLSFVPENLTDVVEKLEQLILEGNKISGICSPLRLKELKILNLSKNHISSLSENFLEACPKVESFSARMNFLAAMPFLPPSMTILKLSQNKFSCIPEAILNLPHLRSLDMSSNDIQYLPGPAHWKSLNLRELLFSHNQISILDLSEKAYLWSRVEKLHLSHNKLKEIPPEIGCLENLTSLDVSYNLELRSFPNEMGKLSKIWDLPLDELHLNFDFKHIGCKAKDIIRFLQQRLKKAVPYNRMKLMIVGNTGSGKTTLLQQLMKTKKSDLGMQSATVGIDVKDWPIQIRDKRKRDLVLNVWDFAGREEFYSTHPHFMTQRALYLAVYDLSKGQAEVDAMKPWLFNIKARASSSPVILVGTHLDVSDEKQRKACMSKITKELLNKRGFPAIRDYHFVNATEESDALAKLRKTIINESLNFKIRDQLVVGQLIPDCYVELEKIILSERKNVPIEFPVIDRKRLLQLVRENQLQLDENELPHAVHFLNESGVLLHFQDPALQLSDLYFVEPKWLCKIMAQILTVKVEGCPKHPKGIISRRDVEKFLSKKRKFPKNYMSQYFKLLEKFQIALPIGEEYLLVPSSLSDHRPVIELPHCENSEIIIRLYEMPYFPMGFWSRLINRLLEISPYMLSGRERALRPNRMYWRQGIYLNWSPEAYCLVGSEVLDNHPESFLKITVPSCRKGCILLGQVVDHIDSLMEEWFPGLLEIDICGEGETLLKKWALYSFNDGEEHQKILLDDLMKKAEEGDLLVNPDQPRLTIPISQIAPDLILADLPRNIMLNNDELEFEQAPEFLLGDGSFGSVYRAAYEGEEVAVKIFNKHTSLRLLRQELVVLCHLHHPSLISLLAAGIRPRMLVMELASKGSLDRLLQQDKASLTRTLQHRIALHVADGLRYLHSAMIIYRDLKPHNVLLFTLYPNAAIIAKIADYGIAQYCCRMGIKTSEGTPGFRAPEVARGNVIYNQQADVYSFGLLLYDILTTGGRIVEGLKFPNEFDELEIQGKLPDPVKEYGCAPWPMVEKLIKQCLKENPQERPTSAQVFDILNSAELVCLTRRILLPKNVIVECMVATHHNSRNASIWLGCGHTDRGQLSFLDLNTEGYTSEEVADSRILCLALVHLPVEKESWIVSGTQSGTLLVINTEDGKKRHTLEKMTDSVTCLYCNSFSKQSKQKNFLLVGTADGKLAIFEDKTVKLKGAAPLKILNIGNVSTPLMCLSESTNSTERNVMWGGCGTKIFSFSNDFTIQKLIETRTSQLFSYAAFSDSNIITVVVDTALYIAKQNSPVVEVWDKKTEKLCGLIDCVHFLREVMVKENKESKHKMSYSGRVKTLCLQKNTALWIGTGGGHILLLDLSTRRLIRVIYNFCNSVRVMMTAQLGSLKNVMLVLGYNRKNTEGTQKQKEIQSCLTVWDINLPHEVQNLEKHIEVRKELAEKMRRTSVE
- MEASUREMENT_PROTOCOL: Cellular LRRK2 phosphoserine 935 dephosphorylation spotblot assay in SH-SY5Y cells stably expressing 3xFlag-LRRK2
- Format: cell-based
- MEASUREMENT_SETUP: @ 5 μM for 2 h; SH-SY5Y stably expressing LRRK2; pS935/total LRRK2
METRIC_NAME: Phosphorylation level relative to solvent (%) (cellular pS935 assay)
Write the numeric value and follow it with the unit.

Example entries begin here.
{"COMPOUND": "O=C1NC(=O)C(c2c[nH]c3ccccc23)=C1c1c[nH]c2ccccc12 [Bisindolylmaleimide IV]", "ASSAYED_SYSTEM": "LRRK2 phospho-Ser935 (Homo sapiens, UniProt Q5S007)", "TEST_RESULT": "84.51%"}
{"COMPOUND": "NC(=O)c1ccc(-c2nc(-c3ccc4c(c3)OCCO4)c(-c3ccccn3)[nH]2)cc1 [Casein kinase I inhibitor, D4476, D4476]", "ASSAYED_SYSTEM": "LRRK2 phospho-Ser935 (Homo sapiens, UniProt Q5S007)", "TEST_RESULT": "97.88%"}

Please tell me: Phosphorylation level relative to solvent (%) (cellular pS935 assay) of C[S+]([O-])c1ccc(-c2nc(-c3ccncc3)c(-c3ccc(F)cc3)[nH]2)cc1 (stereo not shown) [SB 203580] , system LRRK2 phospho-Ser935 (Homo sapiens, UniProt Q5S007)? 90.32%

Please state recorded Phosphorylation level relative to solvent (%) (cellular pS935 assay) (tested on LRRK2 phospho-Ser935 (Homo sapiens, UniProt Q5S007)) of COc1ccc2c(c1)/C(=C/c1cnc[nH]1)C(=O)N2 [SU9516] 94.62%

Quick check: Phosphorylation level relative to solvent (%) (cellular pS935 assay) on LRRK2 phospho-Ser935 (Homo sapiens, UniProt Q5S007), item COc1ccc2c(c1)c(C1=C(c3c[nH]c4ccccc34)C(=O)NC1=O)cn2CCCN(C)C [Gö 6983] ? 70.11%

Field: Phosphorylation level relative to solvent (%) (cellular pS935 assay) (LRRK2 phospho-Ser935 (Homo sapiens, UniProt Q5S007)). Entry: Nc1[nH]nc2nc3ccccc3nc12 [Cdk1/5 inhibitor] 123.99%

# value lookup — system LRRK2 phospho-Ser935 (Homo sapiens, UniProt Q5S007), readout Phosphorylation level relative to solvent (%) (cellular pS935 assay), item O=c1[nH][nH]c2nnc(-c3c(-c4ccccc4)nn4ccccc34)cc12 [ERK inhibitor II, negative control] 77.12%

* * *

- ASSAYED_SYSTEM: GST-tagged truncated LRRK2 containing residues 970 to 2527 (Homo sapiens)
- Construct: GST-tagged truncated LRRK2 containing residues 970 to 2527 (Life Technologies); purchased Life Technologies
- Sequence (Q5S007 970-2527): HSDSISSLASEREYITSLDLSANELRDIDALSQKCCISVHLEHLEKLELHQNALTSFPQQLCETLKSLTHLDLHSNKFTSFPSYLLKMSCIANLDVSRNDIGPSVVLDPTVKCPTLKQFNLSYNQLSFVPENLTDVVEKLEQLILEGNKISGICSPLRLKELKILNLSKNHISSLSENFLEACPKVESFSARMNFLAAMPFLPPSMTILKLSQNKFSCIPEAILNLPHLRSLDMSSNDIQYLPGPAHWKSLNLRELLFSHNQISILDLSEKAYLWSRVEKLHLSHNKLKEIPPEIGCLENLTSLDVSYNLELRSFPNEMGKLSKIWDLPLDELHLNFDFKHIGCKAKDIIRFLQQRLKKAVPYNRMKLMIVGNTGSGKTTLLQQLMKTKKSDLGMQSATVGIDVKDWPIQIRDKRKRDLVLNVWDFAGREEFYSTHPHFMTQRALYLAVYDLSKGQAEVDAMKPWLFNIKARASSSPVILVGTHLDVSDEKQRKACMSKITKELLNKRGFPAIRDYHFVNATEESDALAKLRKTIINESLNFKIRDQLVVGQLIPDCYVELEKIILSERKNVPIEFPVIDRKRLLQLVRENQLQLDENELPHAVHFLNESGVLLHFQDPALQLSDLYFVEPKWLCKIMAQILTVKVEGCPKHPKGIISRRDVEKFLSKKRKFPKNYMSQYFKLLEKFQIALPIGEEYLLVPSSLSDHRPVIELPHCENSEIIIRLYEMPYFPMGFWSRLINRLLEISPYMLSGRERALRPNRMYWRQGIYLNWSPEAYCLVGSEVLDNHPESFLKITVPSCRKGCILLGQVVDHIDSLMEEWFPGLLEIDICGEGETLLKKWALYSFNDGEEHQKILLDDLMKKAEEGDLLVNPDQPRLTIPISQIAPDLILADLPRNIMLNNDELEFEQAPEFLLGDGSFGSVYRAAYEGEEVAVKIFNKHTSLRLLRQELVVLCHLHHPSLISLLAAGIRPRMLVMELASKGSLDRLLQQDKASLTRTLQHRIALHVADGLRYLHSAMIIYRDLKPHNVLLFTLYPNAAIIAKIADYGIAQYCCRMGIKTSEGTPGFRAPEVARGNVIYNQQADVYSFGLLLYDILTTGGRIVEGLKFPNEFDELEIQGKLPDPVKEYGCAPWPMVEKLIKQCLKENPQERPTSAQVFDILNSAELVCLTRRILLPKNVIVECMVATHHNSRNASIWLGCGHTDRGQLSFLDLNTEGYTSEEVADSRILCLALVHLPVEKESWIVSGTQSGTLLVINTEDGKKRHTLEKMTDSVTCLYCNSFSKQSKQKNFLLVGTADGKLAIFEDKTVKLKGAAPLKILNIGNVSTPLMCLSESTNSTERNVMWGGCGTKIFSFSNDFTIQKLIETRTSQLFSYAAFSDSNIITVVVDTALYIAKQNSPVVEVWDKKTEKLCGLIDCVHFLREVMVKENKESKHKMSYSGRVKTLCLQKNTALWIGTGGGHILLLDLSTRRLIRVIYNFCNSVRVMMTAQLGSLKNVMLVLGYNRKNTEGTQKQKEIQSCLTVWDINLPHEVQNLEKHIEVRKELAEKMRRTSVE
- MEASUREMENT_PROTOCOL: In vitro LRRKtide peptide-substrate kinase assay, single dose testing (10 μM)
- Format: biochemical
- MEASUREMENT_SETUP: LRRKtide assay @ 10 μM inhibitor; GST-LRRK2 970-2527; 10 μM ATP; mean, N = 3; solvent control = 100%
METRIC_NAME: % LRRKtide phosphorylation relative to solvent (%)
All answers are understood in %, so give the number only.

{"MOLECULE": "COc1cc2nccc(Oc3ccc(NC(=S)NC(=O)c4ccccc4C)cc3)c2cc1OC", "VALUE_UNIT": "%", "TEST_RESULT": 34.30}

Return % LRRKtide phosphorylation relative to solvent measured with GST-tagged truncated LRRK2 containing residues 970 to 2527 (Homo sapiens) given this molecule: `O=c1c(-c2ccc(F)cc2)c(-c2ccncc2)[nH]n1-c1ccc(Cl)cc1` 132.68

Notebook entry, GST-tagged truncated LRRK2 containing residues 970 to 2527 (Homo sapiens) assay: % LRRKtide phosphorylation relative to solvent of `CCc1[nH]c(-c2ccc(OC)cc2)nc1-c1ccncc1` = ? 47.64

For the record `COc1cc2ncnc(Nc3ccc(Oc4ccccc4)cc3)c2cc1OC` , what value of % LRRKtide phosphorylation relative to solvent is listed for GST-tagged truncated LRRK2 containing residues 970 to 2527 (Homo sapiens)? 27.12

Please tell me: % LRRKtide phosphorylation relative to solvent of N#C/C(=C(/N)SC1C=CC=CC1)c1cccc(C(O)c2ccncc2)c1 (stereo not drawn) , system GST-tagged truncated LRRK2 containing residues 970 to 2527 (Homo sapiens)? 124.71

Lab note: need % LRRKtide phosphorylation relative to solvent for `N#C/C(=C/c1ccc(O)c(O)c1)C(=O)NCc1ccccc1` on GST-tagged truncated LRRK2 containing residues 970 to 2527 (Homo sapiens), anyone have it? 34.24

For the record `CN(C)c1ccc(/C=C2\C(=O)Nc3ccccc32)cc1` , what value of % LRRKtide phosphorylation relative to solvent is listed for GST-tagged truncated LRRK2 containing residues 970 to 2527 (Homo sapiens)? 19.33

Query for GST-tagged truncated LRRK2 containing residues 970 to 2527 (Homo sapiens): what % LRRKtide phosphorylation relative to solvent does the record show for N#CC(c1ccnc(NCCc2cccnc2)n1)c1nc2ccccc2s1 (stereo not drawn) ? 37.61

Please provide the recorded % LRRKtide phosphorylation relative to solvent for `Ic1cccc(CSc2nnc(-c3ccncc3)o2)c1` , tested on GST-tagged truncated LRRK2 containing residues 970 to 2527 (Homo sapiens). 100.90
